For each record, write down the corresponding selectivity ratio.
# protocol-summary: Selectivity index, ratio of IC50 for antiproliferative activity against human L02 cells to IC50 for antiproliferative activity against human MDA-MB-231 cells
# Type: toxicity, cell-based
# test-parameters: L02 cells versus MDA-MB-231 cells, read-out: Ratio IC50
Answer field: number only, no words.

Problem: Value lookup for selectivity ratio; key = "CC(=O)OC(C)(C)/C=C/C(=O)[C@](C)(O)[C@H]1[C@H](O)C[C@@]2(C)[C@@H]3CC=C4[C@@H](C[C@H](O)C(=O)C4(C)C)[C@]3(C)C(=O)C[C@]12C"
Solution: 0.3

Problem: Value lookup for selectivity ratio; key = "CC(=O)OC(C)(C)/C=C/C(=O)[C@](C)(O)[C@H]1[C@H](O)C[C@@]2(C)[C@@H]3CC=C4[C@@H](C[C@H](OC(=O)Cn5ncn(-c6ccc(F)cc6)c5=O)C(=O)C4(C)C)[C@]3(C)C(=O)C[C@]12C"
Solution: 2.04

----------
# protocol-summary: Selectivity index, ratio of IC50 for antiproliferative activity against human L02 cells to IC50 for antiproliferative activity against human A549 cells
# Assay type: toxicity, cell-based
# test-parameters: L02 cells versus A549 cells, read-out: Ratio IC50
For each record, write down the corresponding selectivity ratio.
Answer field: number only, no words.

Problem: Value lookup for selectivity ratio; key = "CC(=O)OC(C)(C)/C=C/C(=O)[C@](C)(O)[C@H]1[C@H](O)C[C@@]2(C)[C@@H]3CC=C4[C@@H](C[C@H](O)C(=O)C4(C)C)[C@]3(C)C(=O)C[C@]12C"
Solution: 0.13

Problem: Value lookup for selectivity ratio; key = "CC(=O)OC(C)(C)/C=C/C(=O)[C@](C)(O)[C@H]1[C@H](O)C[C@@]2(C)[C@@H]3CC=C4[C@@H](C[C@H](OC(=O)Cn5ncn(-c6ccc(F)cc6)c5=O)C(=O)C4(C)C)[C@]3(C)C(=O)C[C@]12C"
Solution: 11.1

----------
For each record, write down the corresponding IC50 at 72 h.
# protocol-summary: Antiproliferative activity against human L02 cells assessed as cell growth inhibition incubated for 72 hrs by SRB assay
# Assay type: toxicity, cell-based
The response must be a number in µM with no trailing unit.

Problem: Value lookup for IC50 at 72 h; key = "COc1cc(-n2cnn(CC(=O)O[C@H]3C[C@@H]4C(=CC[C@@H]5[C@@]4(C)C(=O)C[C@]4(C)[C@@H]([C@@](C)(O)C(=O)/C=C/C(C)(C)OC(C)=O)[C@H](O)C[C@@]54C)C(C)(C)C3=O)c2=O)cc(OC)c1OC"
Solution: 0.03

Problem: Value lookup for IC50 at 72 h; key = "COc1ccc(-n2cnn(CC(=O)O[C@H]3C[C@@H]4C(=CC[C@@H]5[C@@]4(C)C(=O)C[C@]4(C)[C@@H]([C@@](C)(O)C(=O)/C=C/C(C)(C)OC(C)=O)[C@H](O)C[C@@]54C)C(C)(C)C3=O)c2=O)cc1"
Solution: 0.033

Problem: Value lookup for IC50 at 72 h; key = "CC(=O)OC(C)(C)/C=C/C(=O)[C@](C)(O)[C@H]1[C@H](O)C[C@@]2(C)[C@@H]3CC=C4[C@@H](C[C@H](O)C(=O)C4(C)C)[C@]3(C)C(=O)C[C@]12C"
Solution: 0.011

Problem: Value lookup for IC50 at 72 h; key = "CC(=O)OC(C)(C)/C=C/C(=O)[C@](C)(O)[C@H]1[C@H](O)C[C@@]2(C)[C@@H]3CC=C4[C@@H](C[C@H](OC(=O)Cn5ncn(-c6ccccc6)c5=O)C(=O)C4(C)C)[C@]3(C)C(=O)C[C@]12C"
Solution: 0.08
